Emax values, listed per item
Molecular target: F508delCFTR (Homo sapiens, UniProt P13569, DEL508-508)
Construct: expressed in transfected cells; host or cells: CFBE41o- human lung-derived epithelial cells (CFBE4lo-F508delCFTR-HRP), doxycycline-inducible
Sequence (P13569 with tags, fused parts or gaps DEL508-508): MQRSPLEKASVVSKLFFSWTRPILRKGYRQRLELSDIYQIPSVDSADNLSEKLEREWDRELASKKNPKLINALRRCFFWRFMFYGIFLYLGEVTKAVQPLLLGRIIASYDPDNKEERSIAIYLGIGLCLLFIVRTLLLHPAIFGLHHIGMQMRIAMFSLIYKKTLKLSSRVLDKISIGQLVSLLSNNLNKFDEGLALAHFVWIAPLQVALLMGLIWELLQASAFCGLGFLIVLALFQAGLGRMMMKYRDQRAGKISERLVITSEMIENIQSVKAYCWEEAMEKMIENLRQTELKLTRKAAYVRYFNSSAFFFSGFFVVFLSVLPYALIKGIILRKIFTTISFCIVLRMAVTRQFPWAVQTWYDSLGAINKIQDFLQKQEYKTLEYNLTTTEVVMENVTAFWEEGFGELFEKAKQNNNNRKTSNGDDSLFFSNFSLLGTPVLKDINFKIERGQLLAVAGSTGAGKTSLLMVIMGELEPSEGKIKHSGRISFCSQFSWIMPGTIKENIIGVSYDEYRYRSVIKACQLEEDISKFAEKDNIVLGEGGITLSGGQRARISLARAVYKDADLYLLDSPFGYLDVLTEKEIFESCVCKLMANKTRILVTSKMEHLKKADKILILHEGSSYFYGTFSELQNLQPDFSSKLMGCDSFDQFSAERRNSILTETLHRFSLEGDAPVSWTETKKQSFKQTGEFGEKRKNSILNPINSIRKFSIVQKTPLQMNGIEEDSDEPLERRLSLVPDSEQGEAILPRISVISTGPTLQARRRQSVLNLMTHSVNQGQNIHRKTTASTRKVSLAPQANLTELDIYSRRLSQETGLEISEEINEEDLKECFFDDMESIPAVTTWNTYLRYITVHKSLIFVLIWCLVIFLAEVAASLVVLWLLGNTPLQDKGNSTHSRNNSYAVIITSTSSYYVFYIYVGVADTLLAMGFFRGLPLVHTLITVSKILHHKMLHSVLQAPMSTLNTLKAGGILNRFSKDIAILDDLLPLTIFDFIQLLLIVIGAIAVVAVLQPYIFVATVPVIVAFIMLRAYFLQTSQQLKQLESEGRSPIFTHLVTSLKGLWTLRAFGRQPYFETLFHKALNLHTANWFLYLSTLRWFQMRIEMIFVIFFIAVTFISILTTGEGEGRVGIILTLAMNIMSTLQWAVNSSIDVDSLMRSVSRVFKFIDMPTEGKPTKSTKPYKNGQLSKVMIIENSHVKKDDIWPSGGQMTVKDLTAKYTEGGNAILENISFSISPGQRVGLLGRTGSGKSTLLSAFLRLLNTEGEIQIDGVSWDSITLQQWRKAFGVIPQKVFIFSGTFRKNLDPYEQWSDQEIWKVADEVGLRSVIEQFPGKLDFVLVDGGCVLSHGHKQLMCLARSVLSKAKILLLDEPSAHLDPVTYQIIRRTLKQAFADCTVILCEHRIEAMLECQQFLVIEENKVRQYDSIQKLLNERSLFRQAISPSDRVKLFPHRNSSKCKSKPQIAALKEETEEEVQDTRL
Experiment: Cell Surface Expression-Horse Radish Peroxidase (CSE-HRP) Assay;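 also: percent of the 2 µM on-plate positive control corrector response above DMSO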
Format: cell-based
Details: test compound without co-corrector; maximum at any tested concentration, normalized to on-plate positive control; read-out: Maximum % activity (without co-corrector)

- COMPOUND: "COc1ccc(C(C)(C)C)cc1CN[C@H]1[C@H](C(C)(C)C)[C@@H](C(=O)O)N(C(=O)[C@@H]2CCC[C@](C)(O)C2)[C@H]1c1ccccc1 [II-526]"
  Emax: "100 to 200%"
- COMPOUND: "COc1ccc(Cl)cc1CN[C@@H]1[C@@H](C(C)(C)C)[C@H](C(=O)O)N(C(=O)C2CCCCC2)[C@@H]1c1cccnc1N(C)C (racemic) [III-94]"
  Emax: "100 to 200%"
- COMPOUND: "COc1ccc(C(C)(C)C)cc1CN[C@H]1[C@H](C(C)(C)C)[C@@H](C(=O)O)N(C(=O)OC(C)C)[C@H]1c1cccnc1OC [II-511]"
  Emax: "100 to 200%"
- COMPOUND: "COc1cc(C(F)(F)F)ccc1CN[C@@H]1[C@@H](C(C)(C)C)[C@H](C(=O)O)N(C(=O)C2CCC3(CC2)CC3)[C@@H]1c1ccccc1 (racemic) [III-105]"
  Emax: "< 100%"
- COMPOUND: "COc1ncc(C2CCC2)cc1CN[C@H]1[C@H](C(C)(C)C)[C@@H](C(=O)O)N(C(=O)c2ccc3c(c2)OCCO3)[C@H]1c1ccccc1 [II-475]"
  Emax: "< 100%"
- COMPOUND: "COc1nc(C(C)(C)C)ccc1CN[C@H]1[C@H](C(C)(C)C)[C@@H](C(=O)O)N(C(=O)Cc2ccccc2C)[C@H]1c1ccccc1C(C)C [II-427]"
  Emax: "> 200%"
- COMPOUND: "COc1ccc(C(C)(C)C)cc1CN[C@H]1[C@H](C(C)(C)C)[C@@H](C(=O)O)N(C(=O)C2CCC(F)(F)CC2)[C@H]1c1cccnc1N(C)C [II-468]"
  Emax: "100 to 200%"
- COMPOUND: "COc1cc(Cl)ccc1CN[C@@H]1[C@@H](C)[C@H](C(=O)O)N(C(=O)N(C(C)C)C(C)C)[C@@H]1c1ccccc1 (racemic) [III-39]"
  Emax: "< 100%"
- COMPOUND: "COc1ncc(C(F)(F)F)cc1CN[C@@H]1[C@@H](C(C)(C)C)[C@H](C(=O)O)N(C(=O)C2CCCCC2)[C@@H]1c1ccccc1 (racemic) [III-81]"
  Emax: "100 to 200%"
- COMPOUND: "COc1ccc(C(C)(C)C)cc1CN[C@H]1[C@H](C(C)(C)C)[C@@H](C(=O)O)N(C(=O)[C@H]2CCCO2)[C@H]1c1ccccc1 [II-322]"
  Emax: "100 to 200%"
- COMPOUND: "COc1ncc(-c2ccc(F)cc2C)cc1CN[C@H]1[C@H](C(C)(C)C)[C@@H](C(=O)O)N(C(=O)C2CCCCC2)[C@H]1c1ccccc1 [II-343]"
  Emax: "100 to 200%"
- COMPOUND: "CC(C)OC(=O)N1[C@H](c2ccccc2)[C@H](Nc2cccc(C(F)(F)F)n2)[C@@H](C(C)(C)C)[C@@H]1C(=O)O (racemic) [III-44]"
  Emax: "< 100%"
